Ref: patent US20260365653A1

TEST SYSTEM: mutEGFR (D770_N771insNPG, T790) (Homo sapiens, UniProt P00533, INS770NPG/T790M)
Construct: exact insNPG construct not described; in-house EGFR proteins were N-terminal GST fusions from baculovirus/insect cells (borders R669-A1210 given only for WT, insSVD, insASV)
Sequence (P00533 with tags, fused parts or gaps INS770NPG/T790M limits assumed): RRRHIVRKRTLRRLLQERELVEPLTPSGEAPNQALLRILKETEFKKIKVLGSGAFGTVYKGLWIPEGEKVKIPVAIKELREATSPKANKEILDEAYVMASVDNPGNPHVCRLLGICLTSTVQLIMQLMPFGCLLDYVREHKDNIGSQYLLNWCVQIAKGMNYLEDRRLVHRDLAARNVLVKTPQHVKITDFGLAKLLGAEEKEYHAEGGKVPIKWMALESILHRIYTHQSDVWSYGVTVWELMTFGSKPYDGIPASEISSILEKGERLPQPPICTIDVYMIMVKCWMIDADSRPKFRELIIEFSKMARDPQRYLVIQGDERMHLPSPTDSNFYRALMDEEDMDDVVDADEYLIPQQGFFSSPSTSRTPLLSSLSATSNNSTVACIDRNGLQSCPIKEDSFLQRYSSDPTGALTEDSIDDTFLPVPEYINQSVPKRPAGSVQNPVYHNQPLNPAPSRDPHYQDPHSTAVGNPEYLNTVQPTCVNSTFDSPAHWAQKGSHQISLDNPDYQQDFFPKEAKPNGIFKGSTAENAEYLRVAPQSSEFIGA
ASSAY INFO: mutEGFR (D770_N771insNPG, T790) kinase assay
Format: biochemical
SETTINGS: Table 2a, D770_N771insNPG
pIC50: −log10 of the molar value.
OBSERVATION TYPE: pIC50

(Q) Write down the reported pIC50 of Cc1cc(-c2nn3c(c2-c2ccncc2)CN(C(=O)/C=C/CN(C)C)C(C)(C)C3)ccc1Cl , test system: mutEGFR (D770_N771insNPG, T790) (Homo sapiens, UniProt P00533, INS770NPG/T790M).
(A) 7.79

(Q) Write down the reported pIC50 of CN(C)C/C=C/C(=O)N1CCn2nc(-c3ccc(F)cc3)c(-c3ccnc4[nH]ccc34)c2C1 , test system: mutEGFR (D770_N771insNPG, T790) (Homo sapiens, UniProt P00533, INS770NPG/T790M).
(A) 7.94

(Q) Write down the reported pIC50 of C=CC(=O)N1CCn2nc(-c3ccc(Cl)cc3F)c(-c3ccnc(NC)c3)c2C1 , test system: mutEGFR (D770_N771insNPG, T790) (Homo sapiens, UniProt P00533, INS770NPG/T790M).
(A) 8.15

(Q) Write down the reported pIC50 of C=CC(=O)N1CCn2nc(-c3ccccc3Cl)c(-c3ccncc3)c2C1 , test system: mutEGFR (D770_N771insNPG, T790) (Homo sapiens, UniProt P00533, INS770NPG/T790M).
(A) 7.97
